Target: T1, human corticotropin-releasing hormone receptor 1 (human, UniProt P34998 24-415)
T1 sequence (looked up): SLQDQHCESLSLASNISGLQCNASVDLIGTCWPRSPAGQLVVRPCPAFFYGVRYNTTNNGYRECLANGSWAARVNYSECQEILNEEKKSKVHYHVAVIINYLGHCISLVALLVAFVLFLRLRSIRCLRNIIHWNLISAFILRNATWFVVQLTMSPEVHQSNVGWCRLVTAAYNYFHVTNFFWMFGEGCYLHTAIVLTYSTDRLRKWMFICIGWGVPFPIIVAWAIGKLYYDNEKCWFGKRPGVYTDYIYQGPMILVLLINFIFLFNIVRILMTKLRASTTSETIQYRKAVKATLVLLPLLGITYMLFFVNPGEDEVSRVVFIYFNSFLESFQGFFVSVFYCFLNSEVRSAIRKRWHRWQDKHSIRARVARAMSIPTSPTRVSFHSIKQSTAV
Assay: cell-based or functional assay
Non-standard residues stand in square brackets, D forms with d. No end group written: not given here. lip = not defined here; Aib = CC(C)(N)C(=O)O
Reported hCRHR1 EC50 (nM); HTRF cAMP assay, CHO-K1 cells stably expressing hCRHR1 values are given for each entry in this list.
measured-parameter: hCRHR1 EC50 (nM); HTRF cAMP assay, CHO-K1 cells stably expressing hCRHR1

{"binder": "IVLSLDVPIGLLQILLEQARARAAREQAK[Aib]NAEILAEV-NH2 (not fully specified (residue 29); also: lipid and spacer on Lys29 not given here) [SEQ ID NO: 19]", "value-measured": "> 5000 nM"}
{"binder": "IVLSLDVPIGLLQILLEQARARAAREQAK(lip)TNIEILAEV-NH2 (not fully specified; reading uncertain) [SEQ ID NO: 13]", "value-measured": "> 5000 nM"}

The origin of these recorded values is patent EP4810052A2.
